MEASURED PROPERTY: melting point (°C)

Consider the worked cases shown below.
Cc1ccc(-c2ccccc2)cc1Cn1c(Cl)nn(C)c1=O ... 115.7
Cc1ccc(-c2ccccc2)cc1Cn1c(C2CC2)nn(C)c1=O ... 102.4

1. CSc1nn(C)c(=O)n1Cc1cc(-c2ccccc2)ccc1C
2. Cc1ccc(-c2ccccc2)cc1Cn1c(C)nn(C)c1=O
Hey, between 1 and 2 which has a smaller measured melting point? Output the label that corresponds to your choice.
1
(1: 95.6 °C, 2: 138.9 °C)
